System: OCI-LY3 (human diffuse large B-cell lymphoma cells)
Assay: Cell proliferation assay, OCI-LY3
Assay type: cell-based
Conditions: Homo sapiens, OCI-Ly3, 72 h
pIC50: −log10 of the molar value.
compounds and their reported pIC50
readout name: pIC50

compound: C[C@H]1CC[C@@]2(OC1)O[C@H]1C[C@H]3[C@@H]4CC[C@@H]5C[C@@H](NC(=O)CC(=O)N6CCN(CCN(C)C)CC6)CC[C@]5(C)C4CC[C@]3(C)[C@H]1[C@@H]2C (stereo partly shown) [Embodiment 13A]
test target: OCI-LY3 (human diffuse large B-cell lymphoma cells)
readout name: pIC50
assay value: 5.75
--
compound: C[C@H]1CC[C@@]2(OC1)O[C@H]1C[C@H]3[C@@H]4CC[C@@H]5CC(NC(=O)CCN6CCN(CCN(C)C)CC6)CC[C@]5(C)[C@H]4CC[C@]3(C)[C@H]1[C@@H]2C (stereo partly shown) [Embodiment 13]
test target: OCI-LY3 (human diffuse large B-cell lymphoma cells)
readout name: pIC50
assay value: 5.36
--
compound: C[C@H]1CC[C@@]2(OC1)O[C@H]1C[C@@H]3[C@H](CC[C@H]4[C@H]3CC[C@@H]3C[C@H](NC(=O)CC(=O)N5CCN(CCN(C)C)CC5)CC[C@@]34C)[C@H]1[C@@H]2C [Embodiment 13b]
test target: OCI-LY3 (human diffuse large B-cell lymphoma cells)
readout name: pIC50
assay value: 5.36
--
compound: C[C@H]1CC[C@@]2(OC1)O[C@H]1C[C@H]3[C@@H]4CC[C@@H]5C[C@@H](NC(=O)CCN6CCN(C)CC6)CC[C@]5(C)[C@H]4CC[C@]3(C)[C@H]1[C@@H]2C [Embodiment 1A]
test target: OCI-LY3 (human diffuse large B-cell lymphoma cells)
readout name: pIC50
assay value: 5.72

---

Test: physchem
Conditions: organic solvent or mixture

compound: C[C@H]1CC[C@@]2(OC1)O[C@H]1C[C@H]3[C@@H]4CC[C@@H]5CC(NC(=O)CC(=O)N6CCN(C)CC6)CC[C@]5(C)[C@H]4CC[C@]3(C)[C@H]1[C@@H]2C (stereo partly shown) [Embodiment 5]
solubility / mM: 20
